These data points were gathered from the supplement of paper PMC9170038.

Test system: MS2 coat protein
procedure details: apparent KD of MS2 coat protein; higher = weaker reporter binding
condition info: Eterna round: R107; input ligand: arginine 13.2 mM
Measured apparent KD of MS2 coat protein, listed per entry for reference.
Give a bare numeral; the unit nM is implied.

Q: Provide apparent KD of MS2 coat protein value for the following sequence: CAUGACAUGAGGAUCACCCAUGUAUCCAGUCGAGGACCGGUACGGCCGCCACUCGGUGCCUUCAAAUUUACAGACAGGUGACAGG [theeternabot_sameState_MS2_Trp_A_30]
A: 26.2

Q: Provide apparent KD of MS2 coat protein value for the following sequence: UGCACCAUAAUCAUGUUGGUGCUAGGUGAUACCAGCAUCGAAAGAUGCCCUUGGCAGCACCAACAUGAGGAUCACCCAUGUAAUA [(MT)''-(M)'-(T')-(Theo)-(Ms2)_Design1/22_3]
A: 60.1

Q: Provide apparent KD of MS2 coat protein value for the following sequence: ACACGAAGCUGAAGGAGCGUGGUAUAAUUUUUUACAUGAGGAUCACCCAUGUCUCAUUUUUCACAGGUAGGUCGCAGAUGCGUGA [JR_SSArginiB_Sub015]
A: 54.5

Q: Provide apparent KD of MS2 coat protein value for the following sequence: GGACAUGCAGGAAGGAGCGACACGCAGAAACUGCAAAAUCCUCCACACGAGGAUCACCCGUGUCAGGUAGGUCGCCUGCAUGUCG [ArgXB 15 #Zipper #MS2Left #StaticStem #Blueprint]
A: 88.8

Q: Provide apparent KD of MS2 coat protein value for the following sequence: GGGACAUCGGGAAGGAGCGCAUCCAAACCACACAUGAGGAUCACCCAUGUAUAAAUAUGCAUGCAGGUAGGUCGCCCGGUGUCUC [Ersoatus]
A: 79.5

Q: Provide apparent KD of MS2 coat protein value for the following sequence: GAUAUAUACUCGGCCGCCACUGAGAGAGUCAUGUAAACAUGAGGAUCACCCAUGUAAUAUAUAUACAGGACCGGGAGUAUAUUAA [4.C]
A: 16

Q: Provide apparent KD of MS2 coat protein value for the following sequence: CAAAUAGACCACGAUACCAGAACACAAGGAGUAAUAUCAAACAUGAGGAUCACCCAUGUCUUCCCUUGGCAGCGUAGCACGGAGU [theeternabot_exclusion_MS2_Theo_B_23]
A: 13.5

Q: Provide apparent KD of MS2 coat protein value for the following sequence: AGAGUCUAGUCGGCCGCCACUCAUGUCCGAAGGACAUGAGGAUCACCCAUGUACCAAUGGUACAUGAGGACCGGGACUGGACUCA [Omei Tryp B SS C v3]
A: 34.5

---

Measured apparent KD of MS2 coat protein, listed per entry for reference.
System: MS2 coat protein
procedure details: apparent KD of MS2 coat protein; higher = weaker reporter binding
condition info: Eterna round: R107; input ligand: theophylline 20 uM
Give a bare numeral; the unit nM is implied.

Answered examples (5):
>>> observed_result("CUACAUUUGUAGAAACCGGUCAACAAUAUUCGAGGACCGGUACGGCCGCCACUCGUAUAAUUUAAUACAUGAGGAUCACCCAUGU [Tryptophan A 4]")
18.2
>>> observed_result("UUAACAUGAGGAUCACCCAUGUUUGAUGAAGGAGCGACCAGAGGGUCAGGUAGGUCGCAUCACAUGAGGAUCACCCAUGUCGCCC [DOUBLE!!! :-D #13]")
26
>>> observed_result("AAUGUAUUCCACAUGAGGAUCACCCAUGUGCGAGGACCGGUACGGCCGCCACUCGGUGUUGGGAUCAGUUCUGAAUACAUUAAUG [XTryp A #24]")
19.2
>>> observed_result("UGUAUGUGAUCUGAUACCAGCGAUGAUAACCUGAGGAUCACCCUGGUAUGGCGAAAGCCUCGCCCUUGGCAGCAGAUCGCAUACU")
402
>>> observed_result("UAAACUACACAUGAGGAUCACCCAUGUGGCCGAGGACCGGUACGGCCGCCACUCGUGUGUUAAUAAAAGAACUGCAAGGUUCUGU [Laorat]")
419

Switching to the query record.
Q: Provide apparent KD of MS2 coat protein value for the following sequence: AUGGACGACGAUCUGGGAAAACCAGAUCGACGAGGACCGGUACGGCCGCCACUCGUGUUUAUUUAACAUGAGGAUCACCCAUGUA [#13 Tryptophan A Same State]
A: 55.7
